Measured pIC50 values are reported for all entries that follow.
Assayed target: PDGFRβ (Homo sapiens)
Construct: expressed in transfected cells; host or cells: porcine aorta endothelial (PAE)-PDGFRβ cells
Sequence (P09619 33-1106): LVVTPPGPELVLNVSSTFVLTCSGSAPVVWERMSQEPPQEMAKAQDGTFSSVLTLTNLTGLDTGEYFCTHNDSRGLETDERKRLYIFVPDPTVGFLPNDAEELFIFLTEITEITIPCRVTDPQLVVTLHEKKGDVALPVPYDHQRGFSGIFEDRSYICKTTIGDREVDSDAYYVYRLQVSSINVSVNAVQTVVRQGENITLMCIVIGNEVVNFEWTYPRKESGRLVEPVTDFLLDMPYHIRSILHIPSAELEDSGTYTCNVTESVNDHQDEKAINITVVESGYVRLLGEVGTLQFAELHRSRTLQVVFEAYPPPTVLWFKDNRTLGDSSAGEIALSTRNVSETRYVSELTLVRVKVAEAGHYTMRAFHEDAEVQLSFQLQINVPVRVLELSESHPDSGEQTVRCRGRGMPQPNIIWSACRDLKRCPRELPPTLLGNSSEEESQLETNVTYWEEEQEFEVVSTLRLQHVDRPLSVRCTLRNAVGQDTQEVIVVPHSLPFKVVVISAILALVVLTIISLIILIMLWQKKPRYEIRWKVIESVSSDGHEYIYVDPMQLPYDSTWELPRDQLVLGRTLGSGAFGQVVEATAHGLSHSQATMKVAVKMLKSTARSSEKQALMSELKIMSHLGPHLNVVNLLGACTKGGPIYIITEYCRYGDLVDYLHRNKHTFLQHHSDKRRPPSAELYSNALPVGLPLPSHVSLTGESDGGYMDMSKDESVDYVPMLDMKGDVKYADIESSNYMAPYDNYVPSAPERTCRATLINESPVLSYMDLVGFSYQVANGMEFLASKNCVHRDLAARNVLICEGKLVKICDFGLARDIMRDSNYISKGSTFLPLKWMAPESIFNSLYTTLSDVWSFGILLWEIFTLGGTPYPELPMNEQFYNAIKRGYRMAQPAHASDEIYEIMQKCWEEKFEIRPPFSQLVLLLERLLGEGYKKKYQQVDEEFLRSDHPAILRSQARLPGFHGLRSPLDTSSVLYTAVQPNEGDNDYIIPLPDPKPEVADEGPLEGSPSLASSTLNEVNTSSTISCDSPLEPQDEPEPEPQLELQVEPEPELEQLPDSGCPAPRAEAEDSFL
Method notes: PAE-PDGFRβ phosphorylation in PAE-PDGFRB cells assay
Type: cell-based
Assay conditions: library amides from Example 101 (R101), crude mixtures in DMSO; read-out: PAE PDGFR autophos IC50
pIC50: −log10 of the molar value.

- Molecule: "Cc1oc2cc(Oc3ccnc4ccsc34)ccc2c1C(=O)Nc1cccc(-c2cc[nH]n2)c1"
  pIC50: "< 7.00"
- Molecule: "Cc1oc2cc(Oc3ccnc4ccsc34)ccc2c1C(=O)Nc1nnc(C2CC2)s1"
  pIC50: "< 7.00"
- Molecule: "Cc1oc2cc(Oc3ccnc4ccsc34)ccc2c1C(=O)NCC(c1ccc[nH]1)C(F)(F)F (stereo not drawn)"
  pIC50: "< 7.00"
